test system: SK-MEL-5 melanoma; assay: NCI tumour cell line growth inhibition, 48 h
VALUE_TYPE: TGI

Check out these entries, answers already filled in.
1. COC(=O)[C@]12CSC[C@H]1C[C@H](c1cccc3ccccc13)N2; > 100 µM
2. CN1C(=O)C2(c3ccccc31)C1CC3C(CO1)C1C2C3(CO)CN1C#N (centres undefined); > 100 µM
3. CCCC(=O)OC[n+]1ccc(-c2c(COC(=O)NC(C)C)c(COC(=O)NC(C)C)c3n2CCC3)cc1; > 100 µM
4. COc1ccc(-c2cn(-c3cc(OC)c(OC)c(OC)c3)c(=O)[nH]2)cc1OC; > 100 µM
5. O=S(=O)(c1cc(Cl)ccc1Cl)N1CCN(c2cccc(Cl)c2)CC1; > 100 µM

Field: next compound
Problem: I would be grateful if you could share the reported TGI for O=C1[C@@H](O)[C@@H]2CCCC[C@@]23CCCN13 .
Result: > 100 µM

###

tested on: A498 renal; experiment: NCI tumour cell line growth inhibition, 48 h; in the data active = GI50 below about 0.43 µM; inactive = the rest
Respond using exactly one of the listed classes: 1 (active), -1 (inactive)

# count of solved cases: 10
1. Cn1cc(C2=C(c3cn(CCCCCO)c4ccccc34)C(=O)NC2=O)c2ccccc21; -1
2. Oc1ccccc1/C=N\NC(=S)N/N=C/c1ccccc1O; -1
3. N#CC1=C(N)Oc2c(sc3c(Br)cccc23)C1c1ccc(Cl)cc1 (stereo unspecified); -1
4. CCCCCCCCCCCCCCCCN(CC)CC; -1
5. COc1ccc(-c2cn(-c3cc(OC)c(OC)c(OC)c3)c(=O)[nH]2)cc1OC; -1
6. CN(C)CCS(=O)(=O)Nc1cc(-c2ccc3ncc(C#N)c(Nc4ccc(F)c(Cl)c4)c3c2)cnc1Cl; 1
7. CCNCCNc1cc(-c2ccc(C(F)(F)F)cc2)c(C#N)c2nc3cc(Cl)c(Cl)cc3n12; -1
8. Cc1sc2c(c1C)C(c1ccc(Cl)cc1)=N[C@@H](CC(=O)NCCCN1CCN(C)CC1)c1nnc(C)n1-2; 1
9. O=C(O)c1cn(C2CC2)c2cc(N3CCN(Cc4c(O)ccc5ccccc45)CC3)c(F)cc2c1=O; -1
10. C[C@H]1CCC/C=C/[C@@H]2C[C@H](O)C[C@H]2[C@H](O)/C=C/C(=O)O1; 1

Problem: What was the test verdict on COc1ccc(NC(=O)c2ccc(NC3=C(Cl)C(=O)N(Cc4ccccc4)C3=O)cc2)c(OC)c1 ?
Result: -1

Problem: What was the test verdict on Cc1[nH]nc2ncc(C(=O)N3CCC[C@H]3c3ccc(Cl)cc3)cc12 ?
Result: -1

Problem: What was the test verdict on COc1ccc2nc3cccc([N+](=O)[O-])c3c(NC(C)CN(C)C)c2c1 (stereo unspecified) ?
Result: -1

###

system: RPMI-8226 leukemia; assay: NCI tumour cell line growth inhibition, 48 h
VALUE_TYPE: TGI

Check out these entries, answers already filled in.
1) O=C(O)CN(c1ccc(F)cc1)S(=O)(=O)c1ccccc1; > 100 µM
2) Cc1cc2c(cc1Cl)SC(NNC1=NCCN1)=NS2(=O)=O; > 10 µM

Problem: Which measured TGI belongs to CN(C)CCNC(=O)c1ccc2oc3cc4ccccc4c(=O)n3c2c1 , tested on RPMI-8226 leukemia?
Result: > 100 µM

###

system: SW-620 colon; assay: NCI tumour cell line growth inhibition, 48 h
Below, each entry is listed alongside its reported TGI.

Check out these entries, answers already filled in.
1) O=C(CN=C(CN(c1ccccc1)c1ccccc1)Oc1ccc(Cl)cc1Cl)n1ccnc1; > 100 µM
2) CN1CC2=C(NC(=S)NC2c2ccccc2Cl)/C(=C/c2ccccc2Cl)C1 (centres undefined); > 100 µM
3) Cc1[nH]nc2ncc(C(=O)N3CCC[C@H]3c3ccc(Cl)cc3)cc12; > 100 µM

Problem: I would be grateful if you could share the reported TGI for CCOC(=O)C(NC(=O)CC)(Nc1ccc(F)cc1F)C(F)(F)F (centres undefined) .
Result: > 100 µM

Problem: I would be grateful if you could share the reported TGI for O=C1c2cc(F)ccc2-c2c1c1ccc([N+](=O)[O-])cc1c(=O)n2CCCBr .
Result: > 100 µM

Problem: I would be grateful if you could share the reported TGI for O=[N+]([O-])/C(Cl)=C/C(=C1/Nc2ccccc2O1)[N+](=O)[O-] .
Result: 72.3 µM

Problem: I would be grateful if you could share the reported TGI for CCC1CCC2c3c([nH]c4ccc(C)cc34)C3C(=O)N(N(C)C)C(=O)C3C2C1 (centres undefined) .
Result: > 100 µM

Problem: I would be grateful if you could share the reported TGI for COC(=O)[C@@H](C)C[C@H](Cc1ccccc1)NC(=O)c1csc([C@@H](C[C@H](C(C)C)N(C)C(=O)[C@@H](NC(=O)[C@H]2CCCN2C)C2CC2)OC(C)=O)n1 .
Result: > 25 µM

Problem: I would be grateful if you could share the reported TGI for COC(=O)C(c1ccc(OC)cc1)N1C(=O)[C@@H](NC(=O)c2ccccc2)[C@H]1[C@@H](C)O (some centres undefined) .
Result: > 100 µM

Problem: I would be grateful if you could share the reported TGI for COC(=O)Cn1c(=O)oc2nc(-c3ccccc3)cc(C(F)(F)F)c21 .
Result: > 100 µM

Problem: I would be grateful if you could share the reported TGI for Cc1ccc(C2=Nc3ccccc3S(=O)C(c3ccc4c(c3)OCO4)C2)cc1 (centres undefined) .
Result: 34.5 µM

Problem: I would be grateful if you could share the reported TGI for O=S(=O)(O)c1ccc2c(N=Nc3ccccc3)c(O)ccc2c1 .
Result: > 100 µM

Problem: I would be grateful if you could share the reported TGI for CN(/N=C\c1ccnc2ccccc12)c1ccccc1 .
Result: 51.4 µM

Problem: I would be grateful if you could share the reported TGI for CN(C)CCOc1ccccc1NC1=C(Cl)C(=O)C(Nc2ccccc2OCCN(C)C)=C(Cl)C1=O .
Result: 1.24 µM

Problem: I would be grateful if you could share the reported TGI for CCOC(=O)/C(=C\NC(C)(C)CO)c1nc2ccccc2[nH]1 .
Result: > 100 µM

Problem: I would be grateful if you could share the reported TGI for NCCSC(c1ccccc1)(c1ccccc1)c1ccccc1 .
Result: 2.48 µM

Problem: I would be grateful if you could share the reported TGI for CCN(CCO)CCNc1ccc(C)c2sc3ccccc3c(=O)c12 .
Result: 5.5 µM

Problem: I would be grateful if you could share the reported TGI for C=CCCCC1(C)CCNC1=S (centres undefined) .
Result: > 100 µM

Problem: I would be grateful if you could share the reported TGI for COc1ccc(N=Cc2ccc(N(CCC#N)S(=O)(=O)c3ccccc3)cc2C)cc1 .
Result: > 100 µM

Problem: I would be grateful if you could share the reported TGI for C=C1CC2(CCS(=O)(=O)c3ccccc32)OC1=O (centres undefined) .
Result: 11.4 µM

Problem: I would be grateful if you could share the reported TGI for NC(N)=N/N=C/c1c(-c2cccnc2)nc2sc(Cl)cn12 .
Result: 20.7 µM

Problem: I would be grateful if you could share the reported TGI for COc1ccc(/C=C/C(=O)c2sc(-c3cccnc3)nc2C)cc1 .
Result: > 100 µM

Problem: I would be grateful if you could share the reported TGI for COP(=O)(OC)[C@H](O)[C@H]1C[C@@H]1c1ccccc1 .
Result: > 100 µM

Problem: I would be grateful if you could share the reported TGI for C=CC(=O)Nc1cccc(Oc2nc(Nc3ccc(N4CCN(C)CC4)cc3OC)ncc2Cl)c1 .
Result: 2.96 µM

Problem: I would be grateful if you could share the reported TGI for CN(C)c1ccc(/C=C(\NC(=O)c2ccccc2)C(=O)Nc2cccc(C(=O)NCCCO)c2)cc1 .
Result: > 100 µM

Problem: I would be grateful if you could share the reported TGI for COc1cccc(NC(=O)CC(=O)NN2C(=O)/C(=C/c3ccc(N(CCC#N)CCC#N)cc3)N=C2c2cc([N+](=O)[O-])ccc2Cl)c1 .
Result: > 100 µM

Problem: I would be grateful if you could share the reported TGI for O=C([CH-]C(=O)c1ccccc1)c1ccccc1.O=C([CH-]C(=O)c1ccccc1)c1ccccc1.O=C([CH-]C(=O)c1ccccc1)c1ccccc1.[Cl-].[Hf+4] .
Result: > 100 µM

Problem: I would be grateful if you could share the reported TGI for C=C(Cl)C(C)(Cl)CCC(Cl)C(C)C (centres undefined) .
Result: > 100 µM

Problem: I would be grateful if you could share the reported TGI for [Cu+2].[NH-]C(CC(=O)O)C(=O)O.[NH-]C(CC(=O)O)C(=O)O (centres undefined) .
Result: > 100 µM

###

system: OVCAR-4 ovarian; experiment: NCI tumour cell line growth inhibition, 48 h
Below, each entry is listed alongside its reported TGI.

Check out these entries, answers already filled in.
1. C=C1CC2C3C=C(C)C4=CC(=O)CC[C@]4(C)C3CC[C@]2(C)[C@@]1(OC(C)=O)C(C)=O (some centres undefined); > 100 µM
2. CN(C)Cc1c(C(=O)NCCOc2ccc(C(=O)NO)cc2)oc2ccccc12; > 71.3 µM
3. Cc1ccccc1C(C(=O)NC1CCCCC1)N(C(=O)CNc1ncccc1F)c1cccc(F)c1 (centres undefined); > 100 µM
4. Cc1cccc(C)c1N=Nc1ccc(O)c(CN(C)C)c1; > 100 µM
5. Cc1ccc(S(=O)(=O)OCCOCCOCCOCCOCCOS(=O)(=O)c2ccc(C)cc2)cc1; > 100 µM
6. NCCSC(c1ccccc1)(c1ccccc1)c1ccccc1; 12.9 µM

Problem: Which measured TGI belongs to COC(=O)Cn1c(=O)oc2nc(-c3ccccc3)cc(C(F)(F)F)c21 , tested on OVCAR-4 ovarian?
Result: > 100 µM

Problem: Which measured TGI belongs to O=C(O)CN(c1ccc(F)cc1)S(=O)(=O)c1ccccc1 , tested on OVCAR-4 ovarian?
Result: > 100 µM

Problem: Which measured TGI belongs to Cc1ccccc1Nc1nc(NNC(=O)Cc2ccccc2)nc(NNC(=O)c2ccncc2)n1 , tested on OVCAR-4 ovarian?
Result: > 10 µM

Problem: Which measured TGI belongs to COc1ccc(NC(=O)c2ccc(NC3=C(Cl)C(=O)N(Cc4ccccc4)C3=O)cc2)c(OC)c1 , tested on OVCAR-4 ovarian?
Result: > 100 µM

Problem: Which measured TGI belongs to CCOC(=O)CN(c1ccccc1)c1nc(=[N+](C)C)ss1 , tested on OVCAR-4 ovarian?
Result: 32.7 µM

Problem: Which measured TGI belongs to O=c1oc2ccc(Br)cc2c(=O)n1-c1ccc(Cl)cc1F , tested on OVCAR-4 ovarian?
Result: 28.1 µM

Problem: Which measured TGI belongs to CN1CCN(CCCN2c3ccccc3Sc3ccc(Cl)cc32)CC1 , tested on OVCAR-4 ovarian?
Result: 12.4 µM

Problem: Which measured TGI belongs to CN(C)C(=NC#N)N(Cc1ccccc1)Cc1ccccc1 , tested on OVCAR-4 ovarian?
Result: > 100 µM

Problem: Which measured TGI belongs to O=C1CC(CC(OCc2ccccc2)C(OCc2ccccc2)C(COCc2ccccc2)OCc2ccccc2)CC(=O)N1 (centres undefined) , tested on OVCAR-4 ovarian?
Result: > 100 µM

Problem: Which measured TGI belongs to CN(C)CCS(=O)(=O)Nc1cc(-c2ccc3ncc(C#N)c(Nc4ccc(F)c(Cl)c4)c3c2)cnc1Cl , tested on OVCAR-4 ovarian?
Result: 10.3 µM

Problem: Which measured TGI belongs to Cn1c(-c2c(N)n(Cc3ccc(F)cc3)c3nc(C#N)c(C#N)nc23)nc2ccccc21 , tested on OVCAR-4 ovarian?
Result: > 50 µM

Problem: Which measured TGI belongs to COc1ccc2c(c1)CCCc1c-2nc2ccccc2c1N , tested on OVCAR-4 ovarian?
Result: 27.3 µM

Problem: Which measured TGI belongs to O=C1C(c2ccccc2)=C(c2ccccc2)C(c2ccc(Sc3ccc(C4=C(c5ccccc5)C(=O)C(c5ccccc5)=C4c4ccccc4)cc3)cc2)=C1c1ccccc1 , tested on OVCAR-4 ovarian?
Result: > 100 µM

Problem: Which measured TGI belongs to CCCCCCCCCCCCCCCCN(CC)CC , tested on OVCAR-4 ovarian?
Result: 11.1 µM

Problem: Which measured TGI belongs to COc1cc2nc3cc([N+](=O)[O-])ccc3c(NCCNCC(C)O)c2cc1OC (centres undefined) , tested on OVCAR-4 ovarian?
Result: 2.92 µM

Problem: Which measured TGI belongs to CC(=O)NC1COC(COC(=O)CCCCCCCCCCNC(=O)c2ccc([N+](=O)[O-])c3c(=O)c4ccccc4[nH]c23)C(O)C1OC(C)C(=O)NC(C(=O)NC(CCC(N)=O)C(=O)OCc1ccccc1)C(C)C (centres undefined) , tested on OVCAR-4 ovarian?
Result: 30.3 µM

Problem: Which measured TGI belongs to CCC1CCC2c3c([nH]c4ccc(C)cc34)C3C(=O)N(N(C)C)C(=O)C3C2C1 (centres undefined) , tested on OVCAR-4 ovarian?
Result: > 100 µM
